These measurements were taken from patent US9271978B2.

recorded_metric: melting point

Task: Give the measured melting point for `COc1cc(Nc2nn(Cc3ccccc3)c(=O)c3ccccc23)cc(OC)c1OC`
Output: 206 to 207 °C

---

measurement_target: Brd4 bromodomain 1 (BRD4(1)) (Homo sapiens)
Construct: Illustrative results with the first bromodomain of Brd4; made in house; host or cells: E. coli BL21 (DE3)
experiment_description: Inhibition of tetra-acetylated histone H4 binding to Brd4 bromodomain 1 (TR-FRET)
Parameters: key: Active: Compounds with an IC50 value less than 30 μM were deemed to be active.; Not Active: Compounds with an IC50 value less than 30 μM were deemed to be active
condition_parameters: tetra-acetylated histone H4 peptide, active = IC50 <30 μM
recorded_metric: FRET activity (IC50 <30 μM) BRD4(1)

Solved entries (count: 4):
In [3]: df
Out[3]:
                                   compound  value_reported
0  Cc1noc(C)c1-c1cc(N)c(=O)n(Cc2cccc3[nH]ccc23)c1 [Example 247]          Active
1  Cc1noc(C)c1-c1ccc(=O)n(C(C)c2cccc(F)c2)c1 (centres unmarked) [Example 104]          Active
2  Cc1ccc(Nc2cc(-c3c(C)noc3C)cn(Cc3ccccc3)c2=O)cn1 [Example 245]          Active
3  Cc1noc(C)c1-c1ccc(=O)n(Cc2ccccc2)n1 [Example 14]          Active

Task: Give the measured FRET activity (IC50 <30 μM) BRD4(1) for CN1CCN(c2ccc(=O)n(Cc3ccccc3)n2)CC1=O [Example 179]
Output: Active

Task: Give the measured FRET activity (IC50 <30 μM) BRD4(1) for Cc1noc(C)c1-c1cc(Nc2ccccn2)c(=O)n(Cc2ccccc2)c1 [Example 193]
Output: Not Active

Task: Give the measured FRET activity (IC50 <30 μM) BRD4(1) for Cc1noc(C)c1-c1cc(NC(C)C)c(=O)n(Cc2ccccc2)c1 [Example 192]
Output: Active

Task: Give the measured FRET activity (IC50 <30 μM) BRD4(1) for Cc1noc(C)c1-c1ccc(=O)n(C(C)c2ccccc2C(F)(F)F)c1 (centres unmarked) [Example 38]
Output: Active

Task: Give the measured FRET activity (IC50 <30 μM) BRD4(1) for CON(C)C(=O)c1noc(C)c1-c1ccc(=O)n(Cc2ccccc2)c1 [Example 249]
Output: Not Active

Task: Give the measured FRET activity (IC50 <30 μM) BRD4(1) for Cc1noc(C)c1-c1cc(N)c(=O)n(Cc2ccncc2Cl)c1 [Example 253]
Output: Active
